The reported measurements were obtained from patent US4100346A.

# Experimental Protocol: Antibiotic concentration in blood after intramuscular injection
# Condition Details: mouse, im, 20 mg/kg
Measured Metric: Cmax (ng/mL)
Numbers only, in ng/mL.

# example entries with known answers
Smiles Repr	Cmax / ng/mL
NCc1ccccc1CC(=O)N[C@@H]1C(=O)N2C(C(=O)O)=C(CSc3nnnn3CC(=O)O)CS[C@H]12	36000
O=C(Cc1cccs1)N[C@@H]1C(=O)N2C(C(=O)[O-])=C(C[n+]3ccccc3)CS[C@H]12	23000

With those in mind, consider the next molecule.
Short answer for `Cc1nnc(SCC2=C(C(=O)O)N3C(=O)[C@@H](NC(=O)Cn4cnnn4)[C@H]3SC2)s1` : Cmax was 31000

* * *

So I've got a bunch of molecules here, and I need their MBC values.
# Tested on: Klebsiella pneumoniae
# Experimental Protocol: Minimum growth inhibitory and bactericidal concentrations for Enterobacteriaceae
# Assay type: cell-based
# Condition Details: Klebsiella pneumoniae strain 3, inoculum 10^4 cells, read-out: MBC, minimum bactericidal concentration
Numbers only, in µg/mL.

Smiles Repr	MBC / µg/mL
O=C(Cc1cccs1)N[C@@H]1C(=O)N2C(C(=O)[O-])=C(C[n+]3ccccc3)CS[C@H]12	2

I would be grateful if you could provide MBC for each of the following entries.
1. CC(=O)OCC1=C(C(=O)O)N2C(=O)[C@@H](NC(=O)Cc3cccs3)[C@H]2SC1
2. Cc1nnc(SCC2=C(C(=O)O)N3C(=O)[C@@H](NC(=O)Cn4cnnn4)[C@H]3SC2)s1
3. NCc1ccccc1CC(=O)N[C@@H]1C(=O)N2C(C(=O)O)=C(CSc3nnnn3CC(=O)O)CS[C@H]12

Result:
[4, 2, 0.25]

* * *

# Test system: Proteus morganii
# Experimental Protocol: Intramuscular treatment of systemically infected mice
# Format: in vivo
# Condition Details: Morganella morganii, im, 3.5 h, Proteus morganii strain 1, challenge 1×10^5 -4×10^5, treated 1 and 3.5 hours after infection, read-out: PD50 /treatment
Measured Metric: ED50 (mg/kg)
Give bare numbers, in mg/kg.

Dear reader, for each entry below, please note its ED50.
1. Cc1nnc(SCC2=C(C(=O)O)N3C(=O)[C@@H](NC(=O)Cn4cnnn4)[C@H]3SC2)s1
2. NCc1ccccc1CC(=O)N[C@@H]1C(=O)N2C(C(=O)O)=C(CSc3nnnn3CC(=O)O)CS[C@H]12
3. O=C(Cc1cccs1)N[C@@H]1C(=O)N2C(C(=O)[O-])=C(C[n+]3ccccc3)CS[C@H]12

Result:
1. 62
2. 19
3. 180

* * *

Kindly state MBC for each of the entries shown.
# Test system: Escherichia coli
# Experimental Protocol: Minimum growth inhibitory and bactericidal concentrations for Enterobacteriaceae
# Assay type: cell-based
# Condition Details: Escherichia coli strain 2, inoculum 10^4 cells, read-out: MBC, minimum bactericidal concentration

Here are 3 molecules together with their reported answers.
Smiles Repr	MBC
NCc1ccccc1CC(=O)N[C@@H]1C(=O)N2C(C(=O)O)=C(CSc3nnnn3CC(=O)O)CS[C@H]12	16 µg/mL
CC(=O)OCC1=C(C(=O)O)N2C(=O)[C@@H](NC(=O)Cc3cccs3)[C@H]2SC1	32 µg/mL
Cc1nnc(SCC2=C(C(=O)O)N3C(=O)[C@@H](NC(=O)Cn4cnnn4)[C@H]3SC2)s1	16 µg/mL

Now let's try a different one.
Record for `O=C(Cc1cccs1)N[C@@H]1C(=O)N2C(C(=O)[O-])=C(C[n+]3ccccc3)CS[C@H]12` under target or system Escherichia coli: MBC reported as 16 µg/mL

* * *

# Experimental Protocol: Solubility in water, buffer or urine
# Condition Details: solubility, in both buffered aqueous media and in dog urine at room temperature
Measured Metric: solubility

The compound listed as `Cn1nnnc1SCC1=C(C(=O)O)N2C(=O)[C@@H](NC(=O)Cc3ccccc3CN)[C@H]2SC1` has a reported solubility of 1000 to 3000 µg/mL

* * *

# Test system: Enterobacter aerogenes
# Experimental Protocol: Minimum growth inhibitory and bactericidal concentrations for Enterobacteriaceae
# Assay type: cell-based
# Condition Details: Klebsiella aerogenes, Enterobacter aerogenes strain 2; inoculum 10^4 cells; read-out: MBC, minimum bactericidal concentration
Measured Metric: MBC

Smiles Repr	System Name	MBC
O=C(Cc1cccs1)N[C@@H]1C(=O)N2C(C(=O)[O-])=C(C[n+]3ccccc3)CS[C@H]12	Enterobacter aerogenes	> 250 µg/mL
NCc1ccccc1CC(=O)N[C@@H]1C(=O)N2C(C(=O)O)=C(CSc3nnnn3CC(=O)O)CS[C@H]12	Enterobacter aerogenes	2 µg/mL
Cc1nnc(SCC2=C(C(=O)O)N3C(=O)[C@@H](NC(=O)Cn4cnnn4)[C@H]3SC2)s1	Enterobacter aerogenes	> 250 µg/mL

Item: `CC(=O)OCC1=C(C(=O)O)N2C(=O)[C@@H](NC(=O)Cc3cccs3)[C@H]2SC1` | System: Enterobacter aerogenes | MBC: > 250 µg/mL

* * *

# Test system: Escherichia coli
# Experimental Protocol: Effect of inoculum size on susceptibility of Enterobacteriaceae
# Condition Details: read-out: Minimum Inhibitory Concentration, Escherichia coli strain 3, B, Inoculum of 10^6 organisms
Please go through the items and note down their MIC.
Answers are plain numbers, in µg/mL.

Smiles Repr	Uom	Recorded Number
Cc1nnc(SCC2=C(C(=O)O)N3C(=O)[C@@H](NC(=O)Cn4cnnn4)[C@H]3SC2)s1	µg/mL	2
CC(=O)OCC1=C(C(=O)O)N2C(=O)[C@@H](NC(=O)Cc3cccs3)[C@H]2SC1	µg/mL	16
O=C(Cc1cccs1)N[C@@H]1C(=O)N2C(C(=O)[O-])=C(C[n+]3ccccc3)CS[C@H]12	µg/mL	4

API: the following record is the query input.
response.value for `NCc1ccccc1CC(=O)N[C@@H]1C(=O)N2C(C(=O)O)=C(CSc3nnnn3CC(=O)O)CS[C@H]12` (field: MIC) = 1

* * *

# System: Enterobacter cloacae
# Experimental Protocol: Minimum growth inhibitory and bactericidal concentrations for Enterobacteriaceae
# Assay type: cell-based
# Condition Details: Enterobacter cloacae strain 4, inoculum 10^4 cells, read-out: MBC, minimum bactericidal concentration
Kindly state MBC for each of the entries shown.

Compound	MBC
CC(=O)OCC1=C(C(=O)O)N2C(=O)[C@@H](NC(=O)Cc3cccs3)[C@H]2SC1 [Cephalothin]	> 250 µg/mL
O=C(Cc1cccs1)N[C@@H]1C(=O)N2C(C(=O)[O-])=C(C[n+]3ccccc3)CS[C@H]12 [Cephaloridine]	> 250 µg/mL
NCc1ccccc1CC(=O)N[C@@H]1C(=O)N2C(C(=O)O)=C(CSc3nnnn3CC(=O)O)CS[C@H]12 [Example 1]	63 µg/mL

// MBC value for Cc1nnc(SCC2=C(C(=O)O)N3C(=O)[C@@H](NC(=O)Cn4cnnn4)[C@H]3SC2)s1 [Cefazolin] : > 250 µg/mL

* * *

Please respond with reported MIC for every item in the list.
# Test system: Enterobacter cloacae
# Experimental Protocol: Effect of inoculum size on susceptibility of Enterobacteriaceae
# Condition Details: read-out: Minimum Inhibitory Concentration, Enterobacter cloacae strain 1, B, Inoculum of 10^6 organisms

Past entries and their recorded results:
Smiles Repr	MIC
Cc1nnc(SCC2=C(C(=O)O)N3C(=O)[C@@H](NC(=O)Cn4cnnn4)[C@H]3SC2)s1	> 250 µg/mL
O=C(Cc1cccs1)N[C@@H]1C(=O)N2C(C(=O)[O-])=C(C[n+]3ccccc3)CS[C@H]12	> 250 µg/mL
NCc1ccccc1CC(=O)N[C@@H]1C(=O)N2C(C(=O)O)=C(CSc3nnnn3CC(=O)O)CS[C@H]12	> 250 µg/mL

Attention now turns to another entry.
Record `CC(=O)OCC1=C(C(=O)O)N2C(=O)[C@@H](NC(=O)Cc3cccs3)[C@H]2SC1` , field MIC: > 250 µg/mL

* * *

# Test system: Streptococcus pyogenes
# Experimental Protocol: Intramuscular treatment of systemically infected mice
# Type: in vivo
# Condition Details: im, 3.5 h, Streptococcus pyogenes strain 1, challenge 2 × 10^3 -6 × 10^3, treated 1 and 3.5 hours after infection, read-out: PD50 /treatment
Measured Metric: ED50

Smiles Repr	Result
NCc1ccccc1CC(=O)N[C@@H]1C(=O)N2C(C(=O)O)=C(CSc3nnnn3CC(=O)O)CS[C@H]12	2.9 mg/kg
O=C(Cc1cccs1)N[C@@H]1C(=O)N2C(C(=O)[O-])=C(C[n+]3ccccc3)CS[C@H]12	0.06 mg/kg
CC(=O)OCC1=C(C(=O)O)N2C(=O)[C@@H](NC(=O)Cc3cccs3)[C@H]2SC1	4.5 mg/kg

Alright, here's another compound for you.
Entry `Cc1nnc(SCC2=C(C(=O)O)N3C(=O)[C@@H](NC(=O)Cn4cnnn4)[C@H]3SC2)s1` ; ED50 = 0.57 mg/kg

* * *

# System: Escherichia coli
# Experimental Protocol: Effect of inoculum size on susceptibility of Enterobacteriaceae
# Condition Details: read-out: Minimum Inhibitory Concentration, Escherichia coli strain 5, B, Inoculum of 10^6 organisms
Please go through the items and note down their MIC.
One number for each entry, in µg/mL.

For orientation, consider the following solved cases.
Smiles Repr	MIC, µg/mL
Cc1nnc(SCC2=C(C(=O)O)N3C(=O)[C@@H](NC(=O)Cn4cnnn4)[C@H]3SC2)s1	2
CC(=O)OCC1=C(C(=O)O)N2C(=O)[C@@H](NC(=O)Cc3cccs3)[C@H]2SC1	32

For each of the compounds below, note its MIC.
1. O=C(Cc1cccs1)N[C@@H]1C(=O)N2C(C(=O)[O-])=C(C[n+]3ccccc3)CS[C@H]12
2. NCc1ccccc1CC(=O)N[C@@H]1C(=O)N2C(C(=O)O)=C(CSc3nnnn3CC(=O)O)CS[C@H]12

Result:
8
2
